Sourced from a melting point compilation (Tetko et al.; mined from patent text by program, amines drawn as free bases though some values may be those of a salt)

Below: a set of entries, each annotated with reported melting point.
Reported Metric: melting point

[[record]]
molecule = "CNC(=O)c1cnn(-c2ccccc2)c1C#N"
value_observed = "203 to 205 °C"

[[record]]
molecule = "O=C1c2ccccc2C(=O)N1OCc1ccc2c(c1F)OC(c1ccccc1)(c1ccccc1)O2"
value_observed = "177 to 179 °C"

[[record]]
molecule = "CCOC(=O)c1csc(N2N=C(c3ccc([N+](=O)[O-])cc3)c3cc4c(cc3CC2C)OCO4)n1 (stereo not given)"
value_observed = "242 to 243 °C"

[[record]]
molecule = "O=C1[C@H](O)CCN1CC#CCN1CCCC1"
value_observed = "81 to 85 °C"

[[record]]
molecule = "Cc1ccc2c(O)cnnc2c1"
value_observed = "114 to 115 °C"

[[record]]
molecule = "CC(=O)Nc1cccc(OC2CCNCC2)c1"
value_observed = "164 to 165 °C"

[[record]]
molecule = "CCCCc1nc(Cl)c(CO)n1Cc1ccc(NC(=O)[C@H](CC#N)NC(=O)OCc2ccccc2)cc1"
value_observed = "89 to 91 °C"

[[record]]
molecule = "CCc1cccc(C)c1CNc1nc(OCCOC)cc(NC)c1[N+](=O)[O-]"
value_observed = "135 to 136 °C"

[[record]]
molecule = "CC(C)c1ccc2cc(OCCF)ccc2c1"
value_observed = "46 to 48 °C"

[[record]]
molecule = "O=C(NC(=O)c1c(F)cccc1F)Nc1ccc(C(F)(F)F)cn1"
value_observed = "215 to 220 °C"


====

Reported Metric: melting point

[[record]]
compound = "CCc1cc(-n2c(=O)[nH]c3cc(C(F)(F)F)c(Oc4ccccc4)cc32)c(OC)cc1OC"
value_observed = "> 240 °C"

[[record]]
compound = "COc1ccc(-c2cc3ccccc3[nH]2)cc1OC"
value_observed = "188 °C"

[[record]]
compound = "O=C(Oc1ccccc1)c1cccc([N+](=O)[O-])c1Cl"
value_observed = "46 to 48 °C"

[[record]]
compound = "CC1(N)CCC(=O)N(C(=O)OCc2ccccc2)C1=O (stereo not given)"
value_observed = "150 to 152 °C"

[[record]]
compound = "CC(=O)OCc1cc2c3ccccc3nc(=O)n2[nH]1"
value_observed = "186 to 187 °C"

[[record]]
compound = "O=C(O)C(=O)CC(=O)c1cn(Cc2ccc(F)cc2)c2ccccc12"
value_observed = "161 to 162 °C"

[[record]]
compound = "CC(C)CCOC(=O)COc1cc(F)ccc1C(=S)NCc1cccc([N+](=O)[O-])c1"
value_observed = "56 to 58 °C"

[[record]]
compound = "CCOC(=O)C(C)(C)Oc1ccc(CNc2ccc(Cl)cc2)cc1OC"
value_observed = "73 to 74 °C"

[[record]]
compound = "Cc1cc(SC(C)C)c(NC(=O)CCCCCSc2nc3c(C)c(Cl)cc(C(C)C)c3o2)c(SC(C)C)n1"
value_observed = "99 to 101 °C"

[[record]]
compound = "CSC1c2ccccc2COc2ccc(C(=O)O)cc21 (stereo not given)"
value_observed = "198 to 200 °C"


====

Below: a set of entries, each annotated with reported melting point.
Reported Metric: melting point

[[record]]
compound = "FC(F)(F)C1(c2cc(Cl)cc(Cl)c2)CCN(c2ccc(-n3cnnn3)c(Br)c2)C1 (stereo not given)"
value_observed = "193 to 194 °C"

[[record]]
compound = "COC(=O)c1ccc(-c2ccc(Cl)cc2)c(-c2ccc(Cl)cc2Cl)c1"
value_observed = "136 °C"

[[record]]
compound = "[N-]=[N+]=N[C@@H](C(=O)O)C(c1ccccc1)c1ccccc1"
value_observed = "108 to 110 °C"

[[record]]
compound = "CCCc1c(O)c(C(C)=O)cc(I)c1OCC(O)COc1ccc2c(=O)cc(C(=O)O)oc2c1CCC (stereo not given)"
value_observed = "173 to 176 °C"

[[record]]
compound = "CSN=C1C(=O)N2C(C(=O)OC(c3ccccc3)c3ccccc3)=C(CSc3nnnn3C)CSC12 (stereo not given)"
value_observed = "213 to 214 °C"

[[record]]
compound = "O=C(c1cccs1)c1cnn2c(-c3cccc(-c4ccn(Cc5ccccn5)n4)c3)ccnc12"
value_observed = "66 °C"

[[record]]
compound = "CC(=O)SCCc1cccc(N)n1"
value_observed = "55 to 59 °C"

[[record]]
compound = "O=C(CCc1cccnc1)C12CC3CC(CC(C3)C1)C2"
value_observed = "43 to 44.5 °C"

[[record]]
compound = "CCOC(=O)N1N=C(c2ccc(N)cc2)c2cc(Cl)ccc2CC1C (stereo not given)"
value_observed = "95 to 98 °C"

[[record]]
compound = "O=C(c1ccccc1)c1cc(C(F)(F)F)ccc1NC=C[N+](=O)[O-]"
value_observed = "196 to 198 °C"

[[record]]
compound = "COC(=O)CCS(=O)(=O)c1cc(C(C)(C)C)c(O)c(C(C)(C)C)c1"
value_observed = "109 to 111 °C"

[[record]]
compound = "CCOC(=O)c1cnc(Nc2ccccc2OC(C)C)[nH]c1=O"
value_observed = "205 to 207 °C"

[[record]]
compound = "O=C1C2=C(SCCO2)C(O)N1c1ccc2ccc(Cl)cc2n1 (stereo not given)"
value_observed = "270 °C"

[[record]]
compound = "Cc1ccc(N(C)S(=O)(=O)c2cccs2)c2[nH]c(C3=NCC(CC(=O)O)S3)cc12 (stereo not given)"
value_observed = "269 to 270 °C"

[[record]]
compound = "CCN(CC)CC1CCCN(CCNC(=O)N2c3ccccc3C(=O)Nc3cccnc32)C1 (stereo not given)"
value_observed = "184 to 185 °C"

[[record]]
compound = "Cc1cc(NCc2ccccc2)nc(-n2nc(C)cc2C)n1"
value_observed = "136 to 137 °C"

[[record]]
compound = "CC1(N2Cc3c(N)cccc3C2=O)CCC(=O)NC1=O (stereo not given)"
value_observed = "289 to 292 °C"

[[record]]
compound = "NC(=O)[C@H]1CCCN2CC[C@@H]3c4cc(Cl)ccc4N[C@@H]3[C@H]12 (racemic)"
value_observed = "270 °C"

[[record]]
compound = "Cc1cccc(Cl)c1-n1[nH]c(C(C)C)c2c(=O)nc(Cc3ccc(N)cc3)nc1-2"
value_observed = "206 to 207 °C"

[[record]]
compound = "CC(C)C[C@H](N)C(=O)N1CCN(C(c2ccc(F)cc2)c2ccc(F)cc2)CC1"
value_observed = "61 to 68 °C"

[[record]]
compound = "CONC(=O)c1cnn(-c2ccccc2)c1Br"
value_observed = "194 to 197 °C"

[[record]]
compound = "O=C1C(=Cc2sccc2Oc2ccccc2)CCc2cc(OCCn3ccnc3)ccc21"
value_observed = "135 to 137 °C"

[[record]]
compound = "OCC1CCC(N2CCC(=C3c4ccccc4Sc4ccc(C(F)(F)F)cc43)CC2)CC1 (stereo not given)"
value_observed = "193 to 197 °C"

[[record]]
compound = "N#Cc1cccc(C2=NNCCC2n2cc(Cl)cn2)c1 (stereo not given)"
value_observed = "171 °C"

[[record]]
compound = "CCN1C(=O)c2cccnc2N(CC)c2ccccc21"
value_observed = "108 to 110 °C"

[[record]]
compound = "Cc1nc(N)c2ncn(CCCCNC(=O)N3CCOCC3)c2c1C"
value_observed = "164 to 167 °C"

[[record]]
compound = "COC(=O)c1cccc2c(-c3ccc(O)cc3)n(C(C)C)nc12"
value_observed = "195 to 196 °C"

[[record]]
compound = "CCCC(CCC)N1Cc2c(C(=O)O)cc(N(C)S(C)(=O)=O)cc2C1=O"
value_observed = "206 °C"

[[record]]
compound = "O=C(O)C1CCN(c2ccc3nc4[nH]c(=O)[nH]c4cc3c2)CC1"
value_observed = "> 310 °C"

[[record]]
compound = "CN1CCN(c2cc3ccccc3cn2)CC1"
value_observed = "93 to 94 °C"

[[record]]
compound = "COc1ccc(NC2=NN(c3cccnc3)CC2)cc1"
value_observed = "116 to 119 °C"

[[record]]
compound = "Cc1ccc(C(=O)OCCOc2ccc(OC(F)(F)F)cc2)cc1"
value_observed = "76 to 77.5 °C"

[[record]]
compound = "CCOC(=O)CN(CCOc1cc2cc3ncc(C#N)c(Nc4cc(OC)c(Cl)cc4C)c3cc2cc1OCC)CC(=O)OCC"
value_observed = "85 to 86 °C"

[[record]]
compound = "c1ccc(C2(Cc3ccncc3)c3ccccc3-c3sccc32)cc1 (stereo not given)"
value_observed = "88 to 92 °C"

[[record]]
compound = "CC(=NOCCO)c1ccc(S(=O)(=O)c2ccccc2)nc1"
value_observed = "77 to 78 °C"

[[record]]
compound = "Cc1c(C=O)c2cnnc(NCc3ccccc3)c2n1Cc1ccccc1"
value_observed = "171 to 172 °C"

[[record]]
compound = "CCOCc1nc2c(N)nc3cc(N4CCCCS4(=O)=O)ccc3c2n1CCCOC(C)C"
value_observed = "172 to 174 °C"

[[record]]
compound = "O=C(Nc1ccnn1-c1c(Cl)cc(C(F)(F)F)c(Cl)c1Cl)C(Cl)Cl"
value_observed = "156 to 161 °C"

[[record]]
compound = "CCOC(=O)C1=CC2(CCC1S(=O)(=O)Nc1ccc(F)cc1Cl)OCCO2 (stereo not given)"
value_observed = "117 to 119 °C"

[[record]]
compound = "Cc1cccc(-c2c(C(N)=O)n(C)c(=O)c3ncccc23)c1"
value_observed = "> 310 °C"

